Sourced from PubChem BioAssay AID1159580

# Procedure details: chemical genetic growth profiling, strain panel (AID 1159580);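 also: tested at 20 µM; growth read once vehicle control cultures reached saturation at 30 °C; 1 = growth at the plate median or of vehicle wells; lower values mean less growth of the strain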
# Run parameters: S. cerevisiae deletion strains, growth OD, locus YLL041C, strain sdh2, stronger effect = lower value
Hit rate of the full screen: of about 5,500 compounds, about 2,000 (36%) were called active. Not shown: some 18% with an inconclusive outcome. This is one part of the list.
Outcome measure: normalized growth
Give the value as a plain number.

Molecule	normalized growth
O=C1C=C(O)c2ccccc2C1=O	0.939
COc1cc(O)c2c(c1)C(=O)c1cc(C)cc(O)c1C2=O	0.988
O=C(O)CC[N+](=O)[O-]	1
CC1CC(OC(=O)c2ccccc2O)CC(C)(C)C1 (stereo not drawn)	0.989
CC(C)[C@@H]1CC[C@@H](C)C[C@H]1OC(=O)c1ccccc1	0.996

Q) For the molecule O=C(N[C@@H](CO)[C@H](O)c1ccc([N+](=O)[O-])cc1)C(Cl)Cl , give its measured normalized growth value.
A) 1.01

Q) For the molecule O=C1c2ccccc2C(=O)c2ccccc21 , give its measured normalized growth value.
A) 0.993

Q) For the molecule CC(=O)c1c(O)cc(O)cc1O , give its measured normalized growth value.
A) 0.983

Q) For the molecule CNC(C)(C)Cc1ccccc1 , give its measured normalized growth value.
A) 1.02

Q) For the molecule NNCc1ccccc1 , give its measured normalized growth value.
A) 0.992

Q) For the molecule CC(=O)Nc1c(I)cc(I)c(C(=O)O)c1I , give its measured normalized growth value.
A) 0.972

Q) For the molecule CCCCCCCCCCCCCCCC(=O)OC[C@H](NC(=O)C(Cl)Cl)[C@H](O)c1ccc([N+](=O)[O-])cc1 , give its measured normalized growth value.
A) 1.02

Q) For the molecule ClC1C(Cl)C(Cl)C(Cl)C(Cl)C1Cl (stereo not drawn) , give its measured normalized growth value.
A) 0.979

---

# Procedure details: chemical genetic growth profiling, strain panel (AID 1159580)
# Run parameters: S. cerevisiae deletion strains, growth OD, locus YDR388W, stronger effect = lower value
Out of some 5,500 compounds screened, about 2,000 (36%) were called active. Not shown: some 18% with an inconclusive outcome. The list shows a part of the results.
Consider the following molecules and their measured normalized growth readings.
Give the value as a plain number.

Observe how each entry below is paired with its result.
Compound structure	Outcome measure	Val
COc1ccc(/C=C/c2cc(O)cc(O[C@@H]3O[C@H](CO)[C@@H](O)[C@H](O)[C@H]3O)c2)cc1	normalized growth	1
CC(=O)Nc1c(I)cc(I)c(C(=O)O)c1I	normalized growth	0.988
O=C(/C=C/c1ccccc1)c1ccc(O[C@@H]2O[C@H](CO)[C@@H](O)[C@H](O)[C@H]2O)cc1O	normalized growth	0.877
O=C(O)c1cc(=O)c2ccccc2[nH]1	normalized growth	0.997
OC[C@H]1O[C@@H](Oc2ccc(O)cc2)[C@H](O)[C@@H](O)[C@@H]1O	normalized growth	1.01

In the following, a different molecule is considered.
Q) For the molecule COC(=O)c1cc(OC)c(=O)c2c(OC)c(OC)ccc2c1 , give its measured normalized growth value.
A) 0.986

---

Consider the following compounds and their measured normalized growth readings.
# Procedure details: chemical genetic growth profiling, strain panel (AID 1159580)
# Run parameters: S. cerevisiae deletion strains, growth OD, locus YJL095W, strain BCK1 (second series), stronger effect = lower value
The campaign covered roughly 5,500 compounds. About 2,000 (36%) were called active. Inconclusive results (about 18%) are left out. The list shows a part of the results.
Give the value as a plain number.

Observe how each entry below is paired with its result.
Compound	Outcome measure	Val
CC(C)[C@@H]1CC[C@@H](C)C[C@H]1OC(=O)c1ccccc1	normalized growth	1.01
O=c1c(O)c(-c2ccccc2)oc2cccc(O)c12	normalized growth	0.368
CNC(=O)N(C)c1nnc(C(C)(C)C)s1	normalized growth	0.993
CN1CCN(C2=Nc3cc(Cl)ccc3Nc3ccccc32)CC1	normalized growth	0.991

Q) For the compound COc1ccccc1OCC(O)COC(N)=O (stereo unspecified) , give its measured normalized growth value.
A) 0.991

Q) For the compound CO/N=C(/C(=O)NC1C(=O)N2C(C(=O)OCOC(=O)C(C)(C)C)=C(/C=C\c3scnc3C)CSC12)c1csc(N)n1 (stereo unspecified) , give its measured normalized growth value.
A) 0.994

---

Consider the following compounds and their measured normalized growth readings.
# Procedure details: chemical genetic growth profiling, strain panel (AID 1159580);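 also: tested at 20 µM; growth read once vehicle control cultures reached saturation at 30 °C; 1 = growth at the plate median or of vehicle wells; lower values mean less growth of the strain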
# Run parameters: S. cerevisiae deletion strains, growth OD, locus YOR106W, strain vam3, stronger effect = lower value
The campaign covered roughly 5,500 compounds. About 2,000 (36%) were called active. About 18% were inconclusive and are not listed. The list shows a part of the results.

Compound	Outcome measure	Val
O=C1C=CC(=O)c2c(O)c(Cl)c(Cl)c(O)c21	normalized growth	0.0721 (active)
CN1CCCCC1c1ccc(-c2cccnc2)nc1 (configuration not stated)	normalized growth	1 (inactive)
CC(=O)OC[C@@]1(O)C[C@@]23CCC4c5ccoc5CC[C@]4(C)C2CC[C@@H]1C3 (some centres not stated)	normalized growth	0.998 (inactive)
CCCCN(CC)c1c([N+](=O)[O-])cc(C(F)(F)F)cc1[N+](=O)[O-]	normalized growth	0.994 (inactive)
CCCc1ncc(C[n+]2ccccc2C)c(N)n1	normalized growth	0.945 (inactive)

Q) For the compound CC(C)[C@@H]1CC[C@@H](C)CC1=O , give its measured normalized growth value.
A) 0.98 (inactive)

Q) For the compound CC(=O)c1ccc[nH]1 , give its measured normalized growth value.
A) 0.985 (inactive)

Q) For the compound COc1cc(O)c2c(c1)C(=O)c1cc(C)cc(O)c1C2=O , give its measured normalized growth value.
A) 0.991 (inactive)

Q) For the compound CC(C)CCCC(C)N (configuration not stated) , give its measured normalized growth value.
A) 1.04 (inactive)

Q) For the compound O=C(O)CC[N+](=O)[O-] , give its measured normalized growth value.
A) 0.99 (inactive)

Q) For the compound CCCN(CCC)c1c([N+](=O)[O-])cc(C(F)(F)F)cc1[N+](=O)[O-] , give its measured normalized growth value.
A) 1.02 (inactive)

Q) For the compound CC(C)c1cc2c(c(O)c1O)[C@@]1(C(=O)O)CCCC(C)(C)C1CC2 (some centres not stated) , give its measured normalized growth value.
A) 0.871 (inactive)

---

# Procedure details: chemical genetic growth profiling, strain panel (AID 1159580);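 also: tested at 20 µM; growth read once vehicle control cultures reached saturation at 30 °C; 1 = growth at the plate median or of vehicle wells; lower values mean less growth of the strain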
# Run parameters: S. cerevisiae deletion strains, growth OD, locus YCL061C, strain MRC1, stronger effect = lower value
In all, about 5,500 compounds went through this assay and about 2,000 (36%) were called active. About 18% were inconclusive and are not listed. Some of the results follow.
Consider the following molecules and their measured normalized growth readings.
Give the value as a plain number.

Observe how each entry below is paired with its result.
Molecule	normalized growth
NC(=NCCCCCCN=C(N)N=C(N)Nc1ccc(Cl)cc1)N=C(N)Nc1ccc(Cl)cc1	0.064
COCC1=C(C(=O)OC(C)OC(=O)OC(C)C)N2C(=O)[C@@H](NC(=O)/C(=N\OC)c3csc(N)n3)[C@H]2SC1 (stereo not given in full)	0.981
Nc1c(Cl)cc(C(=O)Nc2cc(Cl)cc(Cl)c2)cc1Cl	0.994
N=C(N)SCc1c(F)cccc1Cl	1.01
COC(=O)CC1C(C)(C(=O)c2ccoc2)CC2OCC34C(CC(=O)OC)C5(C)CC36OC3(C)OC1(C(OC(C)=O)C6(OC(C)=O)C5OC(=O)C(C)C)C24O3 (stereo not given)	0.995
COc1ccccc1OCC(O)COC(N)=O (stereo not given)	0.973

Q) For the molecule C=C[C@H]1CN2CC[C@H]1C[C@H]2[C@H](O)c1ccnc2ccccc12 , give its measured normalized growth value.
A) 0.983

---

# Procedure details: chemical genetic growth profiling, strain panel (AID 1159580);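 also: tested at 20 µM; growth read once vehicle control cultures reached saturation at 30 °C; 1 = growth at the plate median or of vehicle wells; lower values mean less growth of the strain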
# Run parameters: S. cerevisiae deletion strains, growth OD, locus YGL078C, strain dbp3, stronger effect = lower value
In all, about 5,500 compounds went through this assay and about 2,000 (36%) were called active. Not shown: some 18% with an inconclusive outcome. Some of the results follow.
Outcome measure: normalized growth
Give the value as a plain number.

Observe how each entry below is paired with its result.
Compound	Val
O=C(/C=C/c1ccccc1)c1ccc(O[C@@H]2O[C@H](CO)[C@@H](O)[C@H](O)[C@H]2O)cc1O	0.948
C[C@H]1C(=O)CCC2[C@]3(C)CC[C@@]4(C)C5CC(C)(C)CC[C@]5(C)CC[C@]4(C)C3CC[C@@]21C (some centres undefined)	1.04
C=C(C)C1Cc2c(ccc3c(=O)c4c(oc23)COc2cc(OC)c(OC)cc2-4)O1 (centres undefined)	0.987
O=C(c1ccccc1)c1ccc2n1CCC2C(=O)O (centres undefined)	0.982

Q) For the compound COc1ccc(-c2c(O)c3c(OC)c4c(cc3oc2=O)OC(C)(C)C=C4)cc1 , give its measured normalized growth value.
A) 0.99

Q) For the compound CC(=O)O[C@@H]1C2CC[C@@H]3C1(C[C@@H](O)[C@@]1(O)[C@@H](C[C@H](O)C1(C)C)[C@]3(C)O)C[C@@]2(C)O (some centres undefined) , give its measured normalized growth value.
A) 1

Q) For the compound CC(=O)NS(=O)(=O)c1ccc(N)cc1 , give its measured normalized growth value.
A) 0.974

Q) For the compound COc1cc(Cc2cnc(N)nc2N)cc(OC)c1OC , give its measured normalized growth value.
A) 0.992

Q) For the compound CC(=O)OC[C@@]1(O)C[C@@]23CCC4c5ccoc5CC[C@]4(C)C2CC[C@@H]1C3 (some centres undefined) , give its measured normalized growth value.
A) 0.966

Q) For the compound C[C@]12[C@H](O)CC3C(CC[C@@H]4C[C@@H](O)CC[C@]34C)[C@@]1(O)CC[C@@H]2C1=CC(=O)OC1 (some centres undefined) , give its measured normalized growth value.
A) 0.979

Q) For the compound OC[C@H]1O[C@@H](Oc2ccc(O)cc2)[C@H](O)[C@@H](O)[C@@H]1O , give its measured normalized growth value.
A) 1.03

Q) For the compound CN(C)CCC[C@@]1(c2ccc(F)cc2)OCc2cc(C#N)ccc21 , give its measured normalized growth value.
A) 1.03

Q) For the compound Cc1c(NC(C)C)c(=O)n(-c2ccccc2)n1C , give its measured normalized growth value.
A) 0.995

Q) For the compound NS(=O)(=O)c1cc2c(cc1Cl)NCNS2(=O)=O , give its measured normalized growth value.
A) 0.997

Q) For the compound O=C1C=CC(=O)c2c(O)cccc21 , give its measured normalized growth value.
A) 1.04

Q) For the compound CC(=O)OC1CCC2(O)CC1(C)CCC1C2CC1(C)C (centres undefined) , give its measured normalized growth value.
A) 1.02

Q) For the compound Cn1c(=O)c2c(ncn2C)n(C)c1=O , give its measured normalized growth value.
A) 1.02

Q) For the compound COc1ccc(NS(=O)(=O)c2ccc(N)cc2)nn1 , give its measured normalized growth value.
A) 0.986

Q) For the compound COP(=O)(NC(C)=O)SC (centres undefined) , give its measured normalized growth value.
A) 0.994

Q) For the compound Cn1c(=O)c2c(ncn2CCO)n(C)c1=O , give its measured normalized growth value.
A) 0.994
